# target-entity: Am2136 WT (Akkermansia muciniphila, UniProt B2UPR7)
# Construct: The coding region (residue Q20-L756) of Am2136 without signal peptide was based on UniProt; 6XHis (N); made in house; host or cells: E. coli BL21 (DE3)
# test-details: Nucleotide binding affinity by intrinsic fluorescence
# condition-description: WT dialyzed + Ca^2+
measurement-name: pKd
Interpret pKd as the negative base-10 log of the concentration measured in mol/L.

# query: pKd of entry Nc1nc2c(ncn2[C@@H]2O[C@H](COP(=O)(O)OP(=O)(O)O)[C@@H](O)[C@H]2O)c(=O)[nH]1 [GDP]
3.93

====

# target-entity: Am2136 (Akkermansia muciniphila)
# Construct: The coding region (residue Q20-L756) of Am2136 without signal peptide was based on UniProt; 6XHis (N); made in house; host or cells: E. coli BL21 (DE3)
# test-details: Oligosaccharide hydrolysis, released GlcNAc by HPLC-QqQ-MS
# Format: biochemical
# condition-description: 1.2 mM substrate, 4 μM Am2136, 37°C, 240 min, with 1 mM GDP
Could you please report measured GlcNAc released for the items listed next?
State the answer as a number, implicitly in µM.

Recorded GlcNAc released of CC(=O)N[C@H]1[C@H](O[C@@H]2C(O)O[C@H](CO)[C@@H](O)[C@@H]2O)O[C@H](CO)[C@@H](O)[C@@H]1O (stereo partly shown) , please.
851.33

Returns the measured GlcNAc released for the input compound. Input: CC(=O)N[C@H]1[C@H](OC[C@H]2O[C@@H](O[C@H]3[C@H](O)[C@@H](O)C(O)O[C@@H]3CO)[C@H](O)[C@@H](O)[C@H]2O)O[C@H](CO)[C@@H](O)[C@@H]1O (stereo partly shown)
712.55

Data request, read-out GlcNAc released, for COC1O[C@H](CO)[C@H](O)[C@H](O[C@@H]2O[C@H](CO)[C@@H](O)[C@H](O)[C@H]2NC(C)=O)[C@H]1O (stereo partly shown)
610.53

Param item = CC(=O)N[C@H]1[C@@H](Oc2ccc([N+](=O)[O-])cc2)O[C@H](CO[C@@H]2O[C@H](CO)[C@@H](O)[C@H](O)[C@H]2NC(C)=O)[C@H](O)[C@@H]1O ; retrieve measured GlcNAc released.
451.25

====

# target-entity: Am2136 Y550A (Akkermansia muciniphila, UniProt B2UPR7, Y550A)
# Sequence (B2UPR7 20-756 Y550A): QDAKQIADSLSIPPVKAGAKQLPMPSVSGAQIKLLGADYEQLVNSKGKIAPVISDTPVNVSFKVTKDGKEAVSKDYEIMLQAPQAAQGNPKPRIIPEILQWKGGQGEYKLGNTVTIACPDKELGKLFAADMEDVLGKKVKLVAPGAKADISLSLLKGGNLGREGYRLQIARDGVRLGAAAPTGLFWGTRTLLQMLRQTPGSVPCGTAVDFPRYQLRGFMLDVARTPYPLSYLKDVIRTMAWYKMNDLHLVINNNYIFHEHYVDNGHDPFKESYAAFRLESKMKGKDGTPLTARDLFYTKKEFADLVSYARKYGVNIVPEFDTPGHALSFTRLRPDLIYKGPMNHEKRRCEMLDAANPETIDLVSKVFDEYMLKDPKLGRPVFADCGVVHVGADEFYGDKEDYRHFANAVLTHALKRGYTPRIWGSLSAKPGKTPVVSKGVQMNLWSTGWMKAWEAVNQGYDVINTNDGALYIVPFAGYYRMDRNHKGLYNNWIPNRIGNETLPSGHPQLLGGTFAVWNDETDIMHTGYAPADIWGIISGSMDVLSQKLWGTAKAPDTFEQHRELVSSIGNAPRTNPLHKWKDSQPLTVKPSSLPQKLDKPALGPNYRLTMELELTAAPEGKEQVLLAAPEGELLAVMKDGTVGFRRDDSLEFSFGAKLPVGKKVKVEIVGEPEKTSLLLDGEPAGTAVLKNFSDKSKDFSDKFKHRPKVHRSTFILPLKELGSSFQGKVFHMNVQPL
# test-details: Nucleotide binding affinity by intrinsic fluorescence, mutant
measurement-name: Kd (µM)
Expressed in µM, but write only the number.

Need Kd, item Nc1nc2c(ncn2[C@@H]2O[C@H](COP(=O)(O)OP(=O)(O)O)[C@@H](O)[C@H]2O)c(=O)[nH]1
193
